All values here come from patent US20150105252A1.

List of Wheat plant response rating values.
# Test system: wheat
# Protocol details: Test A postemergence
# Format: in vivo, Triticum aestivum
# Condition parameters: Postemergence, 500 g ai/ha; visual rating after approx. 10 days, 0 to 100 scale (0 no effect, 100 complete control)
Simply state the number, no unit and no words.

Some entries whose results are on file:
[
  {
    "Sample smiles": "CCONC(=O)c1cc(CC)n(Cc2ccnc(C(F)(F)F)c2)n1",
    "Wheat plant response rating": 50
  },
  {
    "Sample smiles": "Cc1cc(C(=O)Nc2ccc(F)cc2)nn1Oc1ccnc(C(F)(F)F)c1",
    "Wheat plant response rating": 0
  }
]

Here is another molecule to look at.
# lookup: Wheat plant response rating of `CCc1cc(C(=O)NC2CC2)nn1Cc1ccnc(C(F)(F)F)c1` 90

###

Listed here: items and their measured Plant response rating, Morningglory.
# Tested on: morningglory
# Protocol details: Test C postemergence
# Assay type: in vivo, Ipomoea coccinea
# Condition parameters: postemergence, 250 g ai/ha; scale 0 to 100 (0 no effect, 100 complete control)
Response field accepts a number only; no unit should be typed.

[
  {
    "Molecule": "Cc1cc(C(=O)NCC(F)(F)F)nn1Cc1ccnc(C(F)(F)F)c1 [Compound 74]",
    "Plant response rating, Morningglory": 80
  }
]

Give its Plant response rating, Morningglory value. Item: CCOc1cc(C(=O)NOC(C)C)nn1Cc1ccnc(C(F)(F)F)c1 [Compound 153] 80

I have this molecule here, CCOc1cc(C(=O)NCC(F)(F)F)nn1Cc1ccnc(OC(F)F)c1 [Compound 128] , and I need its recorded Plant response rating, Morningglory. 80

I would be grateful if you could share the reported Plant response rating, Morningglory for CCONC(=O)c1cc(CC)n(Cc2cccc(OC(F)(F)F)c2)n1 [Compound 72] . 65

Return reported Plant response rating, Morningglory; argument: CCc1cc(C(=O)NCC(F)(F)F)nn1Cc1cccc(OC(F)(F)F)c1 [Compound 20] 70

Which Plant response rating, Morningglory value belongs to CCCc1cc(C(=O)NC2CC2)nn1Cc1ccnc(OC(F)F)c1 [Compound 205] ? 95

###

Pigweed plant response rating values, listed per item
# System: pigweed
# Protocol details: Test A postemergence
# Type: in vivo, Amaranthus retroflexus
# Condition parameters: Postemergence, 500 g ai/ha; 0 to 100 scale (0 no effect, 100 complete control)

As a guide, the following entries are already answered.
[
  {
    "Compound": "CCCNC(=O)c1cc(Br)n(Cc2cccc(C(F)(F)F)c2)n1 [Compound 159]",
    "Result type": "Pigweed plant response rating",
    "Result": 60
  },
  {
    "Compound": "CCc1cc(C(=O)NCC(F)(F)F)nn1Cc1cc(C(F)(F)F)nn1C(C)C [Compound 213]",
    "Result type": "Pigweed plant response rating",
    "Result": 0
  }
]

Next up:
Pigweed plant response rating lookup needed for CCCc1cc(C(=O)NC2CC2)nn1Cc1ccnc(OC(F)F)c1 [Compound 205] , thanks. 100

###

# Tested on: wheat
# Protocol details: Test A preemergence
# Assay type: in vivo, Triticum aestivum
# Condition parameters: preemergence, 500 g ai/ha, visual injury after approx. 10 days, 0 to 100 scale (0 no effect, 100 complete control)
# Text: […]
Result type: Wheat plant response rating
Could you respond with only the numeric value?

[
  {
    "Sample smiles": "CCCc1cc(C(=O)NC2CC2)nn1Cc1cc(C(F)(F)F)nn1C",
    "Wheat plant response rating": 100
  }
]

Given the compound `CCc1cc(C(=O)NCC(F)(F)C(F)(F)F)nn1Cc1ccnc(C(F)(F)F)c1` , what is its reported Wheat plant response rating? 40

Name the recorded Wheat plant response rating for `Cc1cc(C(=O)NC2CC2)nn1Oc1ccnc(C(F)(F)F)c1` . 10

Given the entry `CCONC(=O)c1cc(CC)n(Cc2cccc(OC(F)(F)F)c2)n1` , report its measured Wheat plant response rating. 10

###

# Tested on: wheat
# Protocol details: Test A postemergence
# Format: in vivo, Triticum aestivum
# Condition parameters: Postemergence, 500 g ai/ha; 0 to 100 scale (0 no effect, 100 complete control)
# Source text: […]
Criterion: Wheat plant response rating strictly less than 50. Met: TRUE. Not met: FALSE.

In plain terms, does `O=C(NCC(F)(F)F)c1cc(Cl)n(Cc2cccc(C(F)(F)F)c2)n1` come in under 50 for Wheat plant response rating? TRUE

Item `CCCCNC(=O)c1cc(CC)n(Cc2ccnc(C(F)(F)F)c2)n1` : Wheat plant response rating beneath 50, strictly? FALSE

Criterion: Wheat plant response rating strictly below 50. Is it met by `CCNC(=O)c1cc(CC)n(Cc2cc(C(F)(F)F)nn2C)n1` ? FALSE

Does the reported Wheat plant response rating of `CCc1cc(C(=O)NCC(F)(F)F)nn1Cc1ccnc(SC(F)(F)F)c1` stay below 50? FALSE

Consider the molecule `CCCNC(=O)c1cc(CC)n(Cc2cc(C(F)(F)C(F)(F)F)nn2C)n1` . Is its Wheat plant response rating strictly less than 50? FALSE

Is Wheat plant response rating of `O=C(NCC(F)(F)F)c1cc(Br)n(Cc2cccc(C(F)(F)F)c2)n1` strictly below 50? TRUE

Please let me know if `CCc1cc(C(=O)NCC(F)(F)F)nn1Oc1cccc(C(F)(F)F)c1` shows Wheat plant response rating below 50. TRUE

Field: below-cutoff. Rule: recorded Wheat plant response rating strictly less than 50. Subject: `CCc1cc(C(=O)NC2CC2)nn1Cc1cc(C(F)(F)F)no1` TRUE

I'd appreciate it if you could check whether `CCONC(=O)c1cc(CC)n(Cc2cc(C(F)(F)F)nn2C(C)C)n1` has Wheat plant response rating smaller than 50. TRUE

###

# Test system: sedge, umbrella
# Protocol details: Test B flood
# Format: in vivo, Cyperus difformis
# Condition parameters: 250 g ai/ha, visual rating on 0 to 100 scale (0 no effect, 100 complete control), 13 to 15 days
# binarize Plant response rating, Sedge, Umbrella: threshold 80 inclusive, high side rule met, low side rule not met

For orientation, consider the following solved cases.
[
  {
    "Molecule": "CCc1cc(C(=O)NC2CC2)nn1Cc1cccc(C(F)(F)F)n1 [Compound 91]",
    "Measured on": "sedge, umbrella",
    "Group": "rule not met"
  },
  {
    "Molecule": "Cc1cc(C(=O)NC2CC2)nn1Oc1ccnc(C(F)(F)F)c1 [Compound 81]",
    "Measured on": "sedge, umbrella",
    "Group": "rule not met"
  },
  {
    "Molecule": "CCc1cc(C(=O)NOC(C)C)nn1Cc1ccnc(OC(F)F)c1 [Compound 126]",
    "Measured on": "sedge, umbrella",
    "Group": "rule met"
  },
  {
    "Molecule": "CCCCc1cc(C(=O)NOCC)nn1Cc1ccnc(C(F)(F)F)c1 [Compound 152]",
    "Measured on": "sedge, umbrella",
    "Group": "rule not met"
  },
  {
    "Molecule": "CCCNC(=O)c1cc(CC)n(Cc2ccnc(C(F)(F)F)c2)n1 [Compound 75]",
    "Measured on": "sedge, umbrella",
    "Group": "rule met"
  }
]

Check this molecule for Plant response rating, Sedge, Umbrella at or above 80: CCCNC(=O)c1cc(CC)n(Cc2cccc(C(F)(F)F)n2)n1 [Compound 88] rule not met

For this molecule, is measured Plant response rating, Sedge, Umbrella 80 or higher? CCc1cc(C(=O)NC2CC2)nn1Cc1cc(OC(F)F)nn1C [Compound 211] rule not met

I'd appreciate it if you could say whether CCOc1cc(C(=O)NCC(F)(F)F)nn1Cc1cc(C(F)(F)F)nn1C [Compound 140] has Plant response rating, Sedge, Umbrella at least equal to 80. rule met

Could you please find out whether CCCc1cc(C(=O)NC(C)C)nn1Cc1cc(C(F)(F)F)nn1C [Compound 201] has Plant response rating, Sedge, Umbrella that meets 80 or exceeds it? rule met

Determine whether measured Plant response rating, Sedge, Umbrella meets or exceeds 80 for CCc1cc(C(=O)NC(C)C)nn1Cc1ccnc(OCC(F)(F)F)c1 [Compound 149] rule met

Textbook exercise: given the entry Cc1cc(C(=O)NCC(F)(F)F)nn1Cc1ccnc(C(F)(F)F)c1 [Compound 74] , state whether its Plant response rating, Sedge, Umbrella is greater than or equal to 80. rule not met

Kindly determine if Plant response rating, Sedge, Umbrella recorded for CCCc1cc(C(=O)NC2CC2)nn1Cc1ccnc(OC(F)F)c1 [Compound 205] is above or exactly 80. rule met

Check if Plant response rating, Sedge, Umbrella >= 80 (inclusive). Item: CCCNC(=O)c1cc(Br)n(Cc2cccc(C(F)(F)F)c2)n1 [Compound 159] rule not met

Say whether CCCNC(=O)c1cc(CC)n(Cc2nc(C(F)(F)F)nn2C)n1 [Compound 109] shows Plant response rating, Sedge, Umbrella of 80 or more. rule not met

Hi, just wondering whether Cc1cc(C(=O)NCC(F)(F)F)nn1Oc1ccnc(C(F)(F)F)c1 [Compound 79] shows Plant response rating, Sedge, Umbrella of 80 or higher. rule not met

Evaluate CCc1cc(C(=O)Nc2ccc(F)cc2)nn1Oc1ccnc(C(F)(F)F)c1 [Compound 89] : Plant response rating, Sedge, Umbrella at minimum 80? rule not met
